Where these numbers come from: patent US8987195B2

# targetSystem: HCV NS3/4A protease genotype 1b (Hepatitis C virus genotype 1b, UniProt P26663)
# Sequence (P26663 1027-1657): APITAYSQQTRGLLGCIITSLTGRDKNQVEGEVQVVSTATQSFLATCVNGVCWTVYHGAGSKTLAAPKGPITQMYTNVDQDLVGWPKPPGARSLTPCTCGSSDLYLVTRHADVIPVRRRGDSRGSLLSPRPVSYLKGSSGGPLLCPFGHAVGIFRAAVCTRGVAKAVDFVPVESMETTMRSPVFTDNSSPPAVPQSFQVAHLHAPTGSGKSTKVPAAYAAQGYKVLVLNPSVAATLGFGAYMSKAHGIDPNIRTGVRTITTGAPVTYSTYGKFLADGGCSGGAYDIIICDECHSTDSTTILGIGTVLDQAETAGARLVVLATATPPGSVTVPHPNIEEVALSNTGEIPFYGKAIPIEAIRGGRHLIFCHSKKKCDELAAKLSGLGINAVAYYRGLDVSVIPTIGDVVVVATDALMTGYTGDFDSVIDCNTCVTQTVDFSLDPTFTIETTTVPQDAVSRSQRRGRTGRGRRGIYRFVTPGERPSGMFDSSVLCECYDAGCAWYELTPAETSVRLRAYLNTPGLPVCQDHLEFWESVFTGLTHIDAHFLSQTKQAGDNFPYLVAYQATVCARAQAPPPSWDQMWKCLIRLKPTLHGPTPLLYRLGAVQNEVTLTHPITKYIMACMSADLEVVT
# Sequence (P26663 1658-1711): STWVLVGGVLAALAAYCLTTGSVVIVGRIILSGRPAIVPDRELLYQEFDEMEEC
# testDescription: HCV NS3/4A protease time-resolved fluorescence (TRF) assay, Ki against genotype 1b
# Format: biochemical
# protocolConditions: IC50 [gt-1b], NS3/4A protease TRF assay, genotype 1b enzyme 0.2 nM
Examples of compounds with documented IC50 follow.
Write the number in nM without appending the unit.

Illustrative cases are given below, each with its answer.
[[record]]
compound = "COc1ccc2nc(C(C)C)c3c(c2c1)[C@H](F)C[C@]1(C[C@H]2C(=O)N[C@]4(C(=O)NS(=O)(=O)C5(C)CC5)C[C@H]4/C=C\\CCCCC[C@H](NC(=O)OCC(C)(C)C)C(=O)N2C1)O3 [Example 388]"
targetsystem = "HCV NS3/4A protease genotype 1b (Hepatitis C virus genotype 1b, UniProt P26663)"
valueunit = "nM"
reading = 0.028

[[record]]
compound = "COCCCOc1ccc2nc(C)c3c(c2c1)CC[C@]1(C[C@H]2C(=O)N[C@]4(C(=O)NS(=O)(=O)C5(C)CC5)C[C@H]4/C=C\\CCCCC[C@H](NC(=O)OC(C)(C)C)C(=O)N2C1)O3 [Example 438]"
targetsystem = "HCV NS3/4A protease genotype 1b (Hepatitis C virus genotype 1b, UniProt P26663)"
valueunit = "nM"
reading = 0.023

[[record]]
compound = "CCc1nc2ccc(OC)cc2c2c1O[C@]1(CC2)C[C@H]2C(=O)N[C@]3(C(=O)NS(=O)(=O)C4(C)CC4)C[C@H]3/C=C\\CCCCC[C@H](NC(=O)O[C@@H](C)C(C)C)C(=O)N2C1 [Example 434]"
targetsystem = "HCV NS3/4A protease genotype 1b (Hepatitis C virus genotype 1b, UniProt P26663)"
valueunit = "nM"
reading = 0.012

[[record]]
compound = "CCc1nc2ccc(OC)cc2c2c1O[C@]1(CC2)C[C@H]2C(=O)N[C@]3(C(=O)NS(=O)(=O)C4(C)CC4)C[C@H]3/C=C\\CCCCC[C@H](NC(=O)c3cn[nH]c3)C(=O)N2C1 [Example 482]"
targetsystem = "HCV NS3/4A protease genotype 1b (Hepatitis C virus genotype 1b, UniProt P26663)"
valueunit = "nM"
reading = 0.008

[[record]]
compound = "COc1ccc2nc(C(F)(F)F)c3c(c2c1)CC[C@]1(C[C@H]2C(=O)N[C@]4(C(=O)NS(=O)(=O)C5(C)CC5)C[C@H]4/C=C\\CCCCC[C@H](NC(=O)OC4CCC4)C(=O)N2C1)O3 [Example 450]"
targetsystem = "HCV NS3/4A protease genotype 1b (Hepatitis C virus genotype 1b, UniProt P26663)"
valueunit = "nM"
reading = 0.019

[[record]]
compound = "COc1ccc2nc(C(F)(F)F)c3c(c2c1)CC[C@]1(C[C@H]2C(=O)N[C@]4(C(=O)NS(=O)(=O)C5(C)CC5)C[C@H]4/C=C\\CCCCC[C@H](NC(=O)O[C@@H]4C[C@@H]5C[C@@H]5C4)C(=O)N2C1)O3 [Example 513]"
targetsystem = "HCV NS3/4A protease genotype 1b (Hepatitis C virus genotype 1b, UniProt P26663)"
valueunit = "nM"
reading = 0.01


The compound Cc1nc2ccc(F)cc2c2c1O[C@]1(CC2)C[C@H]2C(=O)N[C@]3(C(=O)NS(=O)(=O)C4(C)CC4)C[C@H]3/C=C\CCCCC[C@H](NC(=O)OC(C)(C)C(F)(F)F)C(=O)N2C1 [Example 405] showed IC50 equal to 0.021

The compound COc1ccc2nc(C)c3c(c2c1)CC[C@]1(C[C@H]2C(=O)N[C@]4(C(=O)NS(=O)(=O)C5(C)CC5)C[C@H]4/C=C\CCCCC[C@H](Nc4cccc(OC)n4)C(=O)N2C1)O3 [Example 431] showed IC50 equal to 0.209

The compound Cc1ccc2nc(C(F)(F)F)c3c(c2c1)CC[C@]1(C[C@H]2C(=O)N[C@]4(C(=O)NS(=O)(=O)C5(C)CC5)C[C@H]4/C=C\CCCCC[C@H](NC(=O)OC4CCCC4)C(=O)N2C1)O3 [Example 392] showed IC50 equal to 0.014

The compound Cc1ccc2nc(C(F)(F)F)c3c(c2c1)CC[C@]1(C[C@H]2C(=O)N[C@]4(C(=O)NS(=O)(=O)C5(C)CC5)C[C@H]4/C=C\CCCCC[C@H](NC(=O)OCCCN4CCOCC4)C(=O)N2C1)O3 [Example 424] showed IC50 equal to 0.033

The compound CC(C)(C)COC(=O)N[C@H]1CCCCC/C=C\[C@@H]2C[C@@]2(C(=O)NS(=O)(=O)C2(C)CC2)NC(=O)[C@@H]2C[C@]3(CCc4c(c(C(F)(F)F)nc5ccc(Cl)cc45)O3)CN2C1=O [Example 386] showed IC50 equal to 0.029

The compound COc1cccc(N[C@H]2CCCCC/C=C\[C@@H]3C[C@@]3(C(=O)NS(=O)(=O)C3(C)CC3)NC(=O)[C@@H]3C[C@]4(CCc5c(c(C)nc6ccccc56)O4)CN3C2=O)n1 [Example 415] showed IC50 equal to 0.118

The compound COc1ccc2nc(C(F)(F)F)c3c(c2c1)[C@](C)(O)C[C@]1(C[C@H]2C(=O)N[C@]4(C(=O)NS(=O)(=O)C5(C)CC5)C[C@H]4/C=C\CCCCC[C@H](NC(=O)OC(C)(C)C)C(=O)N2C1)O3 [Example 489] showed IC50 equal to 0.016

The compound COCC1(S(=O)(=O)NC(=O)[C@@]23C[C@H]2/C=C\CCCCC[C@H](NC(=O)OCC2(C)CC2)C(=O)N2C[C@@]4(CCc5c(c(C(F)(F)F)nc6ccc(OC)cc56)O4)C[C@H]2C(=O)N3)CC1 [Example 494] showed IC50 equal to 0.018

###

# targetSystem: HCV NS3/4A protease genotype 1b (Hepatitis C virus genotype 1b)
# testDescription: HCV NS3/4A protease time-resolved fluorescence (TRF) assay, Ki against genotype 1b
# Assay type: biochemical
# protocolConditions: IC50 [gt-1b] (nM), NS3/4A genotype 1b, enzyme 0.2 nM; K+ salt
IC50 less than 0.02 nM is MET; IC50 greater than or equal to 0.02 nM is NOT MET.

Please review the following examples before continuing.
[[record]]
compound = "COc1ccc2nc(C)c3c(c2c1)CC[C@]1(C[C@H]2C(=O)N[C@]4(C(=O)NS(=O)(=O)C5(C)CC5)C[C@H]4/C=C\\CCCCC[C@H](NC(=O)O[C@H](C)C(C)C)C(=O)N2C1)O3"
assignedcategory = "MET"

[[record]]
compound = "CC(C)(C)OC(=O)N[C@H]1CCCCC/C=C\\C2CC2(C(=O)NS(=O)(=O)C2(C)CC2)NC(=O)C2C[C@]3(CCc4c(c(C5CC5)nc5c(F)cccc45)O3)CN2C1=O (stereo partly shown)"
assignedcategory = "MET"

[[record]]
compound = "Cc1nc2cc(F)ccc2c2c1O[C@]1(CC2)C[C@H]2C(=O)N[C@]3(C(=O)NS(=O)(=O)C4(C)CC4)C[C@H]3/C=C\\CCCCC[C@H](NC(=O)OC3CCCC3)C(=O)N2C1"
assignedcategory = "NOT MET"


Asked: Bench note: check whether `Cc1nc2cc(F)c(F)cc2c2c1O[C@]1(CC2)C[C@H]2C(=O)N[C@]3(C(=O)NS(=O)(=O)C4(C)CC4)C[C@H]3/C=C\CCCCC[C@H](NC(=O)OC3CCCC3)C(=O)N2C1` shows IC50 below 0.02 nM
Given back: MET

Asked: Bench note: check whether `Cc1nc2cc(F)c(F)cc2c2c1O[C@]1(CC2)C[C@H]2C(=O)N[C@]3(C(=O)NS(=O)(=O)C4(C)CC4)C[C@H]3/C=C\CCCCC[C@H](NC(=O)OC3CCC3)C(=O)N2C1` shows IC50 below 0.02 nM
Given back: MET

Asked: Bench note: check whether `COc1ccc2c3c(c(C4CC4)nc2c1)O[C@]1(CC3)C[C@H]2C(=O)N[C@]3(C(=O)NS(=O)(=O)C4(C)CC4)C[C@H]3/C=C\CCCCC[C@H](NC(=O)OCC(C)C)C(=O)N2C1` shows IC50 below 0.02 nM
Given back: MET

Asked: Bench note: check whether `COc1ccc2nc(C)c3c(c2c1)CC[C@]1(C[C@H]2C(=O)N[C@]4(C(=O)NS(=O)(=O)C5(C)CC5)C[C@H]4/C=C\CCCCC[C@H](NC(=O)OC(C)(C)C)C(=O)N2C1)O3` shows IC50 below 0.02 nM
Given back: MET

Asked: Bench note: check whether `COc1ccc2nc(C3CC3)c3c(c2c1)CC[C@]1(C[C@H]2C(=O)N[C@]4(C(=O)NS(=O)(=O)C5(C)CC5)C[C@H]4/C=C\CCCCC[C@H](NC(=O)OCC(C)(C)C)C(=O)N2C1)O3` shows IC50 below 0.02 nM
Given back: MET

Asked: Bench note: check whether `COc1ccc2nc(C)c3c(c2c1)CC[C@]1(C[C@H]2C(=O)N[C@]4(C(=O)NS(=O)(=O)C5(C)CC5)C[C@H]4/C=C\CCCCC[C@H](NC(=O)OC4CCC4)C(=O)N2C1)O3` shows IC50 below 0.02 nM
Given back: MET

Asked: Bench note: check whether `COc1ccc2nc(C)c3c(c2c1)CC[C@]1(C[C@H]2C(=O)N[C@]4(C(=O)NS(=O)(=O)C5(C)CC5)C[C@H]4/C=C\CCCCC[C@H](NC(=O)OC4(C5CC5)CC4)C(=O)N2C1)O3` shows IC50 below 0.02 nM
Given back: MET

Asked: Bench note: check whether `Cc1nc2cc(Cl)ccc2c2c1O[C@]1(CC2)C[C@H]2C(=O)N[C@]3(C(=O)NS(=O)(=O)C4(C)CC4)C[C@H]3/C=C\CCCCC[C@H](NC(=O)OCC(C)C)C(=O)N2C1` shows IC50 below 0.02 nM
Given back: NOT MET

Asked: Bench note: check whether `COc1ccc2nc(C(F)(F)F)c3c(c2c1)CC[C@]1(C[C@H]2C(=O)N[C@]4(C(=O)NS(=O)(=O)C5(C)CC5)C[C@H]4/C=C\CCCCC[C@H](NC(=O)O[C@@H](C)C(C)C)C(=O)N2C1)O3` shows IC50 below 0.02 nM
Given back: NOT MET
